Data credit: ChEMBL document CHEMBL4033705

Measured IC50, listed per entry.
# System: SW480
# experiment: Cytotoxicity against human SW480 cells assessed as reduction in cell viability after 24 hrs by MTS assay
# Format: functional, cell-based
# condition: SW480, 24 h
Respond numerically; units are µM and should not be typed.

So, CC(C)=CCc1cc([C@@H]2CC(=O)c3c(O)cc(O)c(CC=C(C)C)c3O2)ccc1O [LESPEDEZAFLAVANONE B] ? Its IC50 was 12.5

So, `CC(C)=CCc1c(O)ccc(-c2coc3c(CC=C(C)C)c(O)cc(O)c3c2=O)c1O` ? Its IC50 was 4.62

So, `CC(C)=CCc1c(O)ccc2c1O[C@H](c1ccc3c(c1)C=CC(C)(C)O3)CC2=O` ? Its IC50 was 9.84

So, CC(C)=CCc1cc(/C=C/C(=O)c2ccc(O)c(CC=C(C)C)c2O)ccc1O [KANZONOL C] ? Its IC50 was 6.1

So, CC(C)=CCc1cc([C@@H]2CC(=O)c3ccc(O)c(CC=C(C)C)c3O2)ccc1O [GLABROL] ? Its IC50 was 5.15

So, `CC(C)=CCc1cc(-c2cc(=O)c3c(O)c(CC=C(C)C)c(O)cc3o2)ccc1O` ? Its IC50 was 6.35

So, `CC(C)=CCc1c(O)cc2occ(-c3cc(O)c4c(c3)C=CC(C)(C)O4)c(=O)c2c1O` ? Its IC50 was 7.87

So, `CC(C)=CCc1c(O)c(CC=C(C)C)c2occ(-c3ccc(O)cc3)c(=O)c2c1O` ? Its IC50 was 8.08

Continue with the compound presented below.
So, `CC(C)=CCc1c(O)cc2occ(-c3ccc4c(c3O)C=CC(C)(C)O4)c(=O)c2c1O` ? Its IC50 was 6.72

* * *

Measured inhibition, listed per entry.
# assayed.target: Tyrosine-protein phosphatase non-receptor type 1 (Homo sapiens)
# experiment: Inhibition of recombinant human PTP1B using p-nitrophenyl phosphate as substrate at 10 uM after 30 mins relative to control

Field: example entries. Status: answers known.
So, `COc1cc(O)c(-c2coc3cc(O)ccc3c2=O)c(OC)c1CC=C(C)C` ? Its inhibition was 18%

So, `CC(C)=CCc1c(O)cc2occ(-c3ccc(O)cc3)c(=O)c2c1O` ? Its inhibition was 19%

So, `CC1(C)C(=O)CC[C@]2(C)[C@H]3C(=O)C=C4[C@@H]5C[C@@](C)(C(=O)O)CC[C@]5(C)CC[C@@]4(C)[C@]3(C)[C@@H](O)C[C@@H]12` ? Its inhibition was 1%

So, `CC(C)=CCc1c(O)c(CC=C(C)C)c2occ(-c3ccc(O)cc3)c(=O)c2c1O` ? Its inhibition was 51%

So, `CC(C)=CCc1c(O)cc2occ(-c3ccc4c(c3)C=CC(C)(C)O4)c(=O)c2c1O` ? Its inhibition was 94%

***
So, `CC1(C)C=Cc2cc(-c3coc4cc(O)cc(O)c4c3=O)cc(O)c2O1` ? Its inhibition was 58%

So, `CC1(C)C=Cc2cc(-c3coc4cc(O)cc(O)c4c3=O)ccc2O1` ? Its inhibition was 27%

So, `CC(C)=CCc1cc(-c2coc3c(CC=C(C)C)c(O)cc(O)c3c2=O)cc(O)c1O` ? Its inhibition was 92%

So, `CC(C)=CCc1c(O)cc2occ(-c3cc(O)c4c(c3)C=CC(C)(C)O4)c(=O)c2c1O` ? Its inhibition was 92%

So, `CC1(C)[C@@H](OC=O)CC[C@]2(C)[C@H]3C(=O)C=C4[C@@H]5C[C@@](C)(C(=O)O)CC[C@]5(C)CC[C@@]4(C)[C@]3(C)CC[C@@H]12` ? Its inhibition was 3%

So, `CC(C)=CCc1c(O)ccc2c1oc1c3ccc(O)cc3oc(=O)c21` ? Its inhibition was 21%

So, `O=C(/C=C/c1ccc(O)cc1)c1ccc(O)cc1O` ? Its inhibition was 48%

* * *

# Tested on: RAW264.7
# experiment: Antiinflammatory activity in mouse RAW264.7 cells assessed as inhibition of LPS-induced NO production at 10 uM after 24 hrs by Griess reagent based assay relative to control
# Type: functional
# condition: RAW264.7, 24 h
We use 10% as the dividing line for inhibition at 10 µM: on or above the line is satisfied, below is not satisfied.

// known answers, use as guide
Input: Check this compound for inhibition at 10 µM at or above 10%: `CC1(C)C=Cc2cc(-c3coc4cc(O)cc(O)c4c3=O)cc(O)c2O1`
Output: satisfied

Input: Check this compound for inhibition at 10 µM at or above 10%: `CC(C)=CCc1c(O)cc2occ(-c3ccc4c(c3)C=CC(C)(C)O4)c(=O)c2c1O`
Output: not satisfied

Input: Check this compound for inhibition at 10 µM at or above 10%: `CC(C)=CCc1c(O)ccc([C@H]2COc3cc(O)c(CC=C(C)C)c(O)c3C2=O)c1O`
Output: satisfied

Input: Check this compound for inhibition at 10 µM at or above 10%: `CC(C)=CCc1cc(/C=C/C(=O)c2ccc(O)c(CC=C(C)C)c2O)ccc1O`
Output: satisfied

Input: Check this compound for inhibition at 10 µM at or above 10%: `O=C(/C=C/c1ccc(O)cc1)c1ccc(O)cc1O`
Output: satisfied

***
Input: Check this compound for inhibition at 10 µM at or above 10%: `CC(C)=CCc1cc2c(=O)cc(-c3ccc4c(c3)C=CC(C)(C)O4)oc2cc1O`
Output: not satisfied

* * *

# assayed.target: Mushroom tyrosinase (Agaricus bisporus) (UniProt O42713+Q00024+C7FF04+C7FF05)
# experiment: Inhibition of mushroom tyrosinase at 10 uM using L-tyrosine as substrate incubated for 15 mins followed by substrate addition relative to control
We use 8% as the dividing line for inhibition: on or above the line is label 1, below is label 0.

// known answers, use as guide
Input: Check this molecule for inhibition at or above 8%: `CC(C)=CCc1c(O)ccc2c1oc1c3ccc(O)cc3oc(=O)c21`
Output: label 1

Input: Check this molecule for inhibition at or above 8%: `CC1(C)C(=O)CC[C@]2(C)[C@H]3C(=O)C=C4[C@@H]5C[C@@](C)(C(=O)O)CC[C@]5(C)CC[C@@]4(C)[C@]3(C)[C@@H](O)C[C@@H]12`
Output: label 0

Input: Check this molecule for inhibition at or above 8%: `O=C(/C=C/c1ccc(O)c(O)c1)c1ccc(O)c(O)c1`
Output: label 1

Input: Check this molecule for inhibition at or above 8%: `COc1cc([C@H]2COc3cc(O)ccc3C2)ccc1O`
Output: label 0

Input: Check this molecule for inhibition at or above 8%: `CC(C)=CCc1c(O)ccc(-c2coc3cc(O)cc(O)c3c2=O)c1O`
Output: label 0

***
Input: Check this molecule for inhibition at or above 8%: `O=c1cc(-c2ccc(O)cc2)oc2cc(O)ccc12`
Output: label 1

Input: Check this molecule for inhibition at or above 8%: `CC(C)=CCc1c(O)ccc(-c2coc3cc(O)ccc3c2=O)c1O`
Output: label 0

Input: Check this molecule for inhibition at or above 8%: `CC1(C)C=Cc2c(ccc3c2OC[C@@H](c2ccc(O)cc2O)C3)O1`
Output: label 1

Input: Check this molecule for inhibition at or above 8%: `COc1c(/C=C/C(=O)c2ccc(O)cc2)ccc(O)c1CC=C(C)C`
Output: label 0

* * *

# assayed.target: Tyrosine-protein phosphatase non-receptor type 1 (Homo sapiens)
# experiment: Inhibition of recombinant human PTP1B using p-nitrophenyl phosphate as substrate at 10 uM after 30 mins relative to control
measured.property: inhibition
# answer = value followed by unit

Field: example entries. Status: answers known.
So, `CC(C)=CCc1c(O)cc(O)c2c(=O)cc(-c3ccc(O)cc3)oc12` ? Its inhibition was 18%

So, `CC(C)=CCc1cc(/C=C/C(=O)c2ccc(O)cc2O)ccc1O` ? Its inhibition was 98%

So, `CC(C)=CCc1cc(-c2cc(=O)c3c(O)c(CC=C(C)C)c(O)cc3o2)ccc1O` ? Its inhibition was 94%

So, `O=c1c(-c2ccc(O)cc2)coc2cc(O)cc(O)c12` ? Its inhibition was 29%

So, `CC1(C)C=Cc2c(cc3occ(-c4ccc(O)cc4)c(=O)c3c2O)O1` ? Its inhibition was 79%

So, `CC(C)=CCc1c(O)ccc2c1O[C@H](c1ccc3c(c1)C=CC(C)(C)O3)CC2=O` ? Its inhibition was 50%

***
So, `CC(C)=CCc1cc([C@@H]2CC(=O)c3ccc(O)cc3O2)cc2c1OC(C)(C)C=C2` ? Its inhibition was 43%

So, `COc1ccc(-c2coc3cc(O)ccc3c2=O)c(O)c1` ? Its inhibition was 47%

So, `CC1(C)C=Cc2c(ccc(-c3cc4ccc(O)cc4o3)c2O)O1` ? Its inhibition was 15%

* * *

# assayed.target: Tyrosine-protein phosphatase non-receptor type 1 (Homo sapiens) (UniProt P18031)
# Sequence (P18031 whole entry): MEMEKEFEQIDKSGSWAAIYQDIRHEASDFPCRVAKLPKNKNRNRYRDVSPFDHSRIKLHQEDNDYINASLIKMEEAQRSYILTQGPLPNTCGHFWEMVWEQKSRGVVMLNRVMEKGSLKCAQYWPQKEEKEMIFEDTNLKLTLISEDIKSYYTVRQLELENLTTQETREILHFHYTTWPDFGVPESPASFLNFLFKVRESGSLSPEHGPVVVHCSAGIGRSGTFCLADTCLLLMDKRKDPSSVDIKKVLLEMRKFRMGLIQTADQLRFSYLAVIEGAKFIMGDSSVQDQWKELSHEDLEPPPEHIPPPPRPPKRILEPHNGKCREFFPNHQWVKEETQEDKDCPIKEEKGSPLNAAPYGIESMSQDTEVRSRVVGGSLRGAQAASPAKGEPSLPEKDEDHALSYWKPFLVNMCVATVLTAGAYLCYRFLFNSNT
# experiment: Inhibition of recombinant human PTP1B using p-nitrophenyl phosphate as substrate at 10 uM after 30 mins relative to control
We use 70% as the dividing line for inhibition: on or above the line is Y, below is N.

// known answers, use as guide
Input: Check this compound for inhibition at or above 70%: `CC(C)=CCc1cc(/C=C/C(=O)c2ccc(O)c(CC=C(C)C)c2O)ccc1O`
Output: Y

Input: Check this compound for inhibition at or above 70%: `CC1(C)C=Cc2c(ccc3c2OC[C@@H](c2ccc(O)cc2O)C3)O1`
Output: N

Input: Check this compound for inhibition at or above 70%: `CC(C)=CCc1cc(-c2coc3cc(O)cc(O)c3c2=O)cc(O)c1O`
Output: N

Input: Check this compound for inhibition at or above 70%: `CC(C)=CCc1cc([C@@H]2CC(=O)c3ccc(O)cc3O2)ccc1O`
Output: N

Input: Check this compound for inhibition at or above 70%: `CC(C)=CCc1c(O)ccc(-c2cc3ccc(O)cc3o2)c1O`
Output: N

***
Input: Check this compound for inhibition at or above 70%: `O=c1cc(-c2ccc(O)cc2)oc2cc(O)ccc12`
Output: N

Input: Check this compound for inhibition at or above 70%: `CC(C)=CCc1c(O)ccc(C(=O)/C=C/c2ccc(O)cc2)c1O`
Output: Y

Input: Check this compound for inhibition at or above 70%: `O=c1c(-c2ccc(O)c(O)c2)coc2cc(O)ccc12`
Output: N
